- PROTOCOL_TEXT: chemical genetic growth profiling, strain panel (AID 1159580);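 note: tested at 20 µM; growth read once vehicle control cultures reached saturation at 30 °C; 1 = growth at the plate median or of vehicle wells; lower values mean less growth of the strain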
- MEASUREMENT_CONDITIONS: S. cerevisiae deletion strains, growth OD, locus YGL167C, strain pmr1, hits give low values
Out of some 5,500 compounds screened, about 2,000 (36%) were called active. Inconclusive results (about 18%) are left out. The list shows a part of the results.
READOUT_KIND: normalized growth
Answers are plain numbers.

Record excerpt, results attached:
O=C1CC(c2ccc(O)c(O)c2)Oc2cc(O)cc(O)c21 (stereo not given)	0.991
CC(=O)OC1CC23CC24CCC(OC2OCC(O)C(O)C2O)C(C)(C)C4CCC3C2(C)CC3OC4(CC(C)C3C12C)OC(O)C1(C)OC41 (stereo not given)	0.996
CNC1(C)C2CCC(C2)C1(C)C (stereo not given)	0.993
Cc1cc(C(C)(C)CC(C)(C)C)ccc1OCCOCC[N+](C)(C)Cc1ccccc1	0.0723
O=C(/C=C/C=C/c1ccc2c(c1)OCO2)N1CCCCC1	0.945

The following compounds each have a reported value; give each one's normalized growth.
1. C[C@@H]1O[C@@H](O[C@H]2[C@@H](Oc3cc(O)c4c(c3)O[C@H](c3ccc(O)cc3)CC4=O)O[C@H](CO)[C@@H](O)[C@@H]2O)[C@H](O)[C@H](O)[C@H]1O
2. NC/C=C/C(=O)O
3. NC[C@@H]1O[C@H](O[C@@H]2[C@@H](CO)OC(O[C@@H]3[C@@H](O)[C@H](N)C[C@H](N)[C@H]3OC3O[C@H](CN)[C@@H](O)[C@H](O)[C@H]3N)[C@@H]2O)[C@H](N)[C@@H](O)[C@@H]1O (stereo not given in full)
4. COc1ccc([C@@H]2CC(=O)c3c(O)cc(O)cc3O2)cc1O
5. COc1cc2c(cc1OC)C(=O)C(CC1CCN(Cc3ccccc3)CC1)C2 (stereo not given)

[reply]
[0.977, 1.01, 1.03, 0.977, 0.961]

These measurements were taken from PubChem BioAssay AID1159580.
